Experiment: Phase 1 pharmacokinetic study of a single oral dose of 20 mg E4 monohydrate in female subjects with normal hepatic function and mild, moderate or severe hepatic impairment (plasma, LC-MS/MS, non-compartmental analysis)
Format: in vivo, human
Conditions: female, human, plasma, po, 20 mg, Normal hepatic function; single oral dose 20 mg E4 monohydrate; plasma; read-out: AUC0-24 h, Mean
Protocol: This was a Phase 1, multi-centre, open-label, PK, and safety study of a single oral dose of 20 mg E4 monohydrate in female subjects with normal hepatic function (Group 1), mild hepatic impairment (Group 2), moderate hepatic impairment (Group 3), and severe hepatic impairment (Group 4), as defined using the Child-Pugh classification at Screening. […] PK parameters were calculated by non-compartmental analysis. […]
METRIC NAME: AUC(0-t) (ng·h/mL)
Report the value in ng·h/mL with no unit label.

Enquiry: What value of AUC(0-t) has been reported for the following molecule? `C[C@]12CC[C@@H]3c4ccc(O)cc4CC[C@H]3[C@@H]1[C@@H](O)[C@@H](O)[C@@H]2O`
Return: 63.5
